The origin of these recorded values is patent US11878015B2.

# method description: High throughput thermodynamic solubility procedure
# Type: physicochemical
# condition set: FaSSGF, pH value of 1.6
# Experimental: In a 96-well plate, 10 mM DMSO stocks (50-100 uL) of each compound were dried under heated nitrogen flow using a SPE-96 plate dryer (upper flow rate=50 L/min, temperature=60° C., lower flow rate=20 L/min, temperature=80° C.). […] Compounds prepared as the free base were assessed in conditions with and without one equivalent of TFA added. […] Solubility of all samples were quantified following comparison to standards of known concentration by HPLC-UV.
observable: solubility in fasted state simulated gastric fluid (FaSSGF), in words

Example compounds with recorded solubility in fasted state simulated gastric fluid (FaSSGF), in words:
| compound | result |
| --- | --- |
| Cc1cc(Nc2ncnc(N)c2C#N)c(=O)n2c1C(=O)N[C@@]21CCCN(C)C1 (single isomer, unassigned) [Compound 2Fb] | excellent solubility |
| Cc1cc(Nc2ncnc(N)c2C#N)c(=O)n2c1C(=O)NC21CCCN(C)C1 (racemic) [rac-2F] | excellent solubility |
| Cc1cc(Nc2ncnc(N)c2C)c(=O)n2c1C(=O)N[C@]21CCCN(C)C1 (stereo in doubt) [Compound 1Fa] | excellent solubility |
| Cc1cc(Nc2ncnc(N)c2Cl)c(=O)n2c1C(=O)NC21CCCN(C)C1 (stereo not shown) [Compound 3D] | excellent solubility |
| Cc1cc(Nc2ncnc(N)c2Cl)c(=O)n2c1C(=O)N[C@@]21CCCN(C)C1 [Compound 3X] | excellent solubility |

Could I get solubility in fasted state simulated gastric fluid (FaSSGF), in words for every one of these entries?
1. Cc1cc(Nc2ncnc(N)c2Cl)c(=O)n2c1C(=O)N[C@@]21CCCNC1 [Compound 3L]
2. Cc1cc(Nc2ncnc(N)c2Cl)c(=O)n2c1C(=O)N[C@]21CCCNC1 [Compound 3K]

excellent solubility
excellent solubility

---

# method description: High throughput thermodynamic solubility procedure
# Assay type: physicochemical
# condition set: Fasted-State Simulated Intestinal Fluid (FaSSIF), pH 6.5, fassif, thermodynamic from solid; Fasted-State Simulated Intestinal Fluid, 18 hours incubation, theoretical maximum 10 mM; read-out: Aqueous Solubility FaSSIF (pH 6.5)
observable: solubility at 18 h

| molecule | solubility at 18 h |
| --- | --- |
| Cc1cc(Nc2ncnc(N)c2Cl)c(=O)n2c1C(=O)N[C@@]21CCCNC1 | 70 µM |

Dear colleague, could you send me solubility at 18 h for each of the items below? Thanks.
1. Cc1cc(Nc2ncnc(N)c2Cl)c(=O)n2c1C(=O)NC21CNCCC1(C)C (stereo not shown)
2. Cc1cc(Nc2ncnc(N)c2Cl)c(=O)n2c1C(=O)N[C@]21CCCNC1
3. Cc1cc(Nc2ncnc(N)c2C#N)c(=O)n2c1C(=O)NC21CCCN(C)C1 (racemic)

1: 600 µM; 2: 158 µg/mL; 3: 79 µg/mL

---

# method description: High throughput thermodynamic solubility procedure
# Assay type: physicochemical
# condition set: thermodynamic from solid; deionized water, 18 hours incubation, theoretical maximum 10 mM; read-out: Aqueous Solubility DI H2O
Kindly state solubility at 18 h for each of the entries shown.

Solved cases below.
| compound | observable | result |
| --- | --- | --- |
| Cc1cc(Nc2ncnc(N)c2Cl)c(=O)n2c1C(=O)N[C@@]21CCCNC1 | solubility at 18 h | 3.2 mM |
| Cc1cc(Nc2ncnc(N)c2C)c(=O)n2c1C(=O)NC21CCCN(C)C1 (racemic) | solubility at 18 h | 4.3 mM |
| Cc1cc(Nc2ncnc(N)c2Cl)c(=O)n2c1C(=O)NC21CCN(C)CC1(C)C (stereo not shown) | solubility at 18 h | 2.1 mM |
| Cc1cc(Nc2ncnc(N)c2Cl)c(=O)n2c1C(=O)NC21CNCCC1(C)C (stereo not shown) | solubility at 18 h | 4.2 mM |
| Cc1cc(Nc2ncnc(N)c2C)c(=O)n2c1C(=O)NC21CCN(CCC(F)(F)F)CC1 | solubility at 18 h | 4.4 mM |

List the reported solubility at 18 h of each compound below.
1. Cc1cc(Nc2ncnc(N)c2Cl)c(=O)n2c1C(=O)NC21CCCNC1 (stereo not shown)
2. Cc1cc(Nc2ncnc(N)c2C#N)c(=O)n2c1C(=O)N[C@@]21CCCN(C)C1 (single isomer, unassigned)

2.6 mM
1770 µg/mL

---

# method description: High throughput thermodynamic solubility procedure
# Assay type: physicochemical
# condition set: Fasted-State Simulated Intestinal Fluid (FaSSIF), pH 6.5, fassif, thermodynamic from solid; Fasted-State Simulated Intestinal Fluid, 18 hours incubation, theoretical maximum 10 mM; read-out: Aqueous Solubility FaSSIF (pH 6.5)
Provide the recorded solubility at 18 h for the entries that follow.
One number for each entry, in µg/mL.

| compound | unit text | solubility at 18 h |
| --- | --- | --- |
| Cc1cc(Nc2ncnc(N)c2C)c(=O)n2c1C(=O)N[C@]21CCCN(C)C1 (stereo in doubt) | µg/mL | 125 |
| Cc1cc(Nc2ncnc(N)c2C)c(=O)n2c1C(=O)N[C@@]21CCCN(C)C1 (stereo in doubt) | µg/mL | 88 |
| Cc1cc(Nc2ncnc(N)c2C)c(=O)n2c1C(=O)NC21CCCN(C(C)(C)C)C1 (stereo not shown) | µg/mL | 107 |
| Cc1cc(Nc2ncnc(N)c2C#N)c(=O)n2c1C(=O)N[C@@]21CCCN(C)C1 (single isomer, unassigned) | µg/mL | 151 |
| Cc1cc(Nc2ncnc(N)c2Cl)c(=O)n2c1C(=O)NC21CCCN(C(C)(C)C)C1 (stereo not shown) | µg/mL | 593 |

Quick batch: solubility at 18 h for everything below.
1. Cc1cc(Nc2ncnc(N)c2Cl)c(=O)n2c1C(=O)NC21CCCN(C(C)C)C1 (stereo not shown)
2. Cc1cc(Nc2ncnc(N)c2C#N)c(=O)n2c1C(=O)N[C@]21CCCN(C)C1 (single isomer, unassigned)

1. 68
2. 77
